The binders listed here are annotated with their koff.
- Target entity: T1, His-tagged human IGF1R protein (ACRO Biosystems Inc., Cat #: IGR-H5229) (human, UniProt P08069 31-932)
- T1 construct: Bought protein; also called hIGF1R-His; not shown: His tag
- T1 sequence (P08069 31-932): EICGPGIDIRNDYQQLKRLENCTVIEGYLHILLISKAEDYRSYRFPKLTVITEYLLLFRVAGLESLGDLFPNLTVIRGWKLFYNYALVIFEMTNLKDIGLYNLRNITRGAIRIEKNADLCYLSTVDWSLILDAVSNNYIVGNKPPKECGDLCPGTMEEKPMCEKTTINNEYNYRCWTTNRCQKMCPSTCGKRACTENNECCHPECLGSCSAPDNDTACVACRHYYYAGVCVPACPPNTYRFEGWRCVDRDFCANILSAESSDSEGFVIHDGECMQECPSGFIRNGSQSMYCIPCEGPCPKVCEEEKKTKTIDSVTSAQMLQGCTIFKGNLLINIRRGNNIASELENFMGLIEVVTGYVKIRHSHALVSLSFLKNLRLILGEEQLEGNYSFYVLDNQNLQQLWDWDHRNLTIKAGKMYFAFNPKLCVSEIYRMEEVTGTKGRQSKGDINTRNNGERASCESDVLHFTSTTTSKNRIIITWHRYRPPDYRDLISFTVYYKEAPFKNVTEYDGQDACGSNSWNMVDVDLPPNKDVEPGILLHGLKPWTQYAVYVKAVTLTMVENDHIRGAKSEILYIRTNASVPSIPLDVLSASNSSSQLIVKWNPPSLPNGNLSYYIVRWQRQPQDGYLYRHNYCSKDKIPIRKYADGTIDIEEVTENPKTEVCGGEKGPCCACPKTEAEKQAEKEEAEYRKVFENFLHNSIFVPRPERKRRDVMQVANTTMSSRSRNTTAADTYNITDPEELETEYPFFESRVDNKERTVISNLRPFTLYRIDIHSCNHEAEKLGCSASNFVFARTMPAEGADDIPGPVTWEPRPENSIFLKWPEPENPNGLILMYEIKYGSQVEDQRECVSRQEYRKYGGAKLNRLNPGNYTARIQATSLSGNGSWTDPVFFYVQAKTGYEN
- Assay info: SPR (Biacore 8K), antibody captured on Protein A chip, antigen as analyte, 1:1 model
Quick note: give the figure in s⁻¹, leave out the unit.

Binder | koff (s⁻¹)
anti-IGF1R antibody 10G1 (antibody, human IgG1, V domains shown) VH: QVQLVESGGGLVKPGGSLRLSCAASEFTFSDYYMSWIRQSPGKGLEWVSYISNSGSFTNYADSVKGRFTISRDNAKNSLYLQMNSLRAEDSAIYYCVRDQAPVTSKYYYYGMDVWGQGTTVTVSS VL: EIVLTQSPSSLSASVGDRVTITCRASQGIRNDFAWYQQKPGKAPKRLIYAASRLQRGVPSRFSGSGSGTEFTLTISSLQPEDFATYYCLQHNSYPYTFGQGTKLEIK | 0.000162
anti-IGF1R antibody 12D1 (antibody, human IgG1, V domains shown) VH: QVQLVESGGGVVRPGGSLRLSCAASGFTFDDYGMSWVRQVPGKGLEWVSGINWNGGSTDYADSVKGRFTISREKAKNSLYLQMNSLRAEDTALYYCVRDRGAVTRRYYYYGMDVWGQGTTVTVSS VL: DIQMTQSPSSLSASVGDRVTITCRASQDIRNDLGWYQLKPGKAPKRLIYAASRLQSGVPSRFSGSGSGTEFTLTISSLQPEDFATYYCLQHNSYPYTFGQGTKLEIK | 1.05e-05
anti-IGF1R antibody 12A4 (antibody, V domains shown) VH: EVQLVQSGGGEIRPGGSLRLSCAASGFTFADYGMSWVRQAPGEGLEWVSEIDWTGGSKLYADSVKGRFTISRDNAKNSLFLQMNSLRAEDTALYYCVRDRGAVSPKYYYYGMDVWGQGTTVTVSS VL: EIVLTQSPSSLSASVGDRVTITCRASQGIRNDLGWYQQKPGKAPKRLIYAASRLQSGVPSRFSGSGSGTDFTLTISSLQPEDFATYYCLQHNSYPYTFGQGTKLEIK | 5.69e-06

Please find the next binder below.
koff in this record for anti-IGF1R antibody 10D1 (antibody, human IgG1, V domains shown) VH: QVQLQQSGGGVVRPGGSLRLSCAASGFTFADYGMSWVRQVPGKGLEWVSGINWNGGSTDYADSVKGRFTISRDNAKHSLYLQMNSLRAEDTAFYYCARDRGAVSRRYYYYGMDVWGLGTTVTVSS VL: AIQLTQSPSSLSASVGDRVTITCRASQDIRNDLGWYQLKPGKAPKRLIYAASRLQSGVPSGFSGSGSGTEFTLTISSLQPEDFATYYCLQHNSYPYTFGQGTKLEIK : 1.26e-05

Where do the numbers come from? From patent US20260258141A1.
